Hey, just so you know, these numbers are from paper PMC4351158.

Biological target: T1, DegS N197A (E. coli, UniProt P0AEE3 27-355, N197A)
T1 sequence (looked up): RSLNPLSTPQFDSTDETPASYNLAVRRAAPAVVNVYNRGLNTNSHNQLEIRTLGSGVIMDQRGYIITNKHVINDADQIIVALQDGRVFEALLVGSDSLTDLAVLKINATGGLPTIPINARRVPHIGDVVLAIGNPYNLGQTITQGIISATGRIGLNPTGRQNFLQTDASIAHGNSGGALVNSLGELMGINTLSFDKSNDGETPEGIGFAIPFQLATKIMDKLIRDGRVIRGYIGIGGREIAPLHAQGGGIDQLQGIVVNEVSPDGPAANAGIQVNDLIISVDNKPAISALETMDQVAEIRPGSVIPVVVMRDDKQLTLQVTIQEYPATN
Assay: fluorescence polarisation
Where no end group is shown, it is not given here. fluorescein = fluorescein, a fluorescent label on the peptide N-terminus
value type: pKd
In textbook form, pKd equals minus log to base ten of the concentration in mol/L.

pKd for fluorescein-DNRDGNVYYF [fluorescent OMP peptide fluorescein-DNRDGNVYYF] ?
5.85
